experiment: qHTS profiling for inhibitors of Plasmodium falciparum proliferation (AID 504749);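 also: 0% = DMSO vehicle and full inhibition = artemisinin control; nearly all actives have a fitted effect of over 60% in size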; conditions: P. falciparum in erythrocytes, SYBR Green DNA, 72 h; at 28.7 µM (top of the series); parasite line B
Records with an inconclusive call do not appear.
Attribute Measured: activity, negative = inhibition (%)

- CCCCC(=O)N(Cc1ccc(-c2ccccc2-c2nn[nH]n2)cc1)C(C(=O)O)C(C)C (centres undefined): 6.89
- COC(=O)[C@@H]1[C@@H]2C[C@H]3c4[nH]c5ccccc5c4CCN3C[C@@H]2CC[C@@H]1O: -2.77
- CC(C)(O)c1ccccc1CC[C@H](SCC1(CC(=O)O)CC1)c1cccc(/C=C/c2ccc3ccc(Cl)cc3n2)c1: -18.3
- O=C1c2cccc3c2[C@@H](CCC3)CN1[C@@H]1CN2CCC1CC2: 6.33

---

assay: qHTS Assay for Lipid Storage Modulators (AID 1519); details: Drosophila S3 cells, BODIPY lipid droplet/cell ratio, laser cytometry; at 57.5 µM (top of the series); cells loaded with oleic acid; also: % is scaled to controls: 0 for no effect and ±100 for the full control effect
Inconclusive results are not listed.
Attribute Measured: activity change, negative = inhibition (%)

- CC(=O)N1CCN(C)CC1: -3.74
- O=C(OC1Cc2c(O)cc(O)cc2OC1c1cc(O)c(O)c(O)c1-c1c(C2Oc3cc(O)cc(O)c3CC2OC(=O)c2cc(O)c(O)c(O)c2)cc(O)c(O)c1O)c1cc(O)c(O)c(O)c1 (centres undefined): 6.84
- N[C@@H](Cn1cc(I)c(=O)n(Cc2ccc(C(=O)O)cc2)c1=O)C(=O)O: 2.45
- CC(C)NC[C@@H](O)COc1ccc(COCCOC(C)C)cc1: 0.281
- CC(C)(C)NC[C@H](O)COc1cccc2[nH]c(=O)[nH]c12: -4.86
- C=CC1=C(C)C2=NC1=CC1=NC(=CC3=NC(=CC4=NC(=C2)C(C)=C4CCC(=O)O)C(CCC(=O)O)=C3C)C(C=C)=C1C.[Zn]: -3.5
- N[C@H](CCC(=O)NCC(=O)O)C(=O)O: -2.27
- C1=C(CN2CCOCC2)COc2c1cccc2OC[C@@H]1CNCCO1: 0.797
- Nc1c(S(=O)(=O)O)cc(Nc2ccc(Nc3nc(Cl)nc(Nc4ccc(S(=O)(=O)O)cc4)n3)c(S(=O)(=O)O)c2)c2c1C(=O)c1ccccc1C2=O: -0.911

---

biological target: Atrial natriuretic peptide receptor 1 (Homo sapiens) (UniProt P16066); assay: Natriuretic polypeptide receptor (hNpr1) antagonism - Pilot CMLD screen (AID 1347052); settings: HEK293 hNpr1 GloSensor cGMP luminescence, ANP-stimulated; series mostly up to 9.22 µM;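 also: HEK293 cells with hNpr1 stimulated by hNppA peptide at 0.1 nM; cGMP level read as GloSensor luciferase luminescence after agonist stimulation; % is scaled to controls: 0 for no effect and ±100 for the full control effect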
Sequence (P16066 whole entry, looked up): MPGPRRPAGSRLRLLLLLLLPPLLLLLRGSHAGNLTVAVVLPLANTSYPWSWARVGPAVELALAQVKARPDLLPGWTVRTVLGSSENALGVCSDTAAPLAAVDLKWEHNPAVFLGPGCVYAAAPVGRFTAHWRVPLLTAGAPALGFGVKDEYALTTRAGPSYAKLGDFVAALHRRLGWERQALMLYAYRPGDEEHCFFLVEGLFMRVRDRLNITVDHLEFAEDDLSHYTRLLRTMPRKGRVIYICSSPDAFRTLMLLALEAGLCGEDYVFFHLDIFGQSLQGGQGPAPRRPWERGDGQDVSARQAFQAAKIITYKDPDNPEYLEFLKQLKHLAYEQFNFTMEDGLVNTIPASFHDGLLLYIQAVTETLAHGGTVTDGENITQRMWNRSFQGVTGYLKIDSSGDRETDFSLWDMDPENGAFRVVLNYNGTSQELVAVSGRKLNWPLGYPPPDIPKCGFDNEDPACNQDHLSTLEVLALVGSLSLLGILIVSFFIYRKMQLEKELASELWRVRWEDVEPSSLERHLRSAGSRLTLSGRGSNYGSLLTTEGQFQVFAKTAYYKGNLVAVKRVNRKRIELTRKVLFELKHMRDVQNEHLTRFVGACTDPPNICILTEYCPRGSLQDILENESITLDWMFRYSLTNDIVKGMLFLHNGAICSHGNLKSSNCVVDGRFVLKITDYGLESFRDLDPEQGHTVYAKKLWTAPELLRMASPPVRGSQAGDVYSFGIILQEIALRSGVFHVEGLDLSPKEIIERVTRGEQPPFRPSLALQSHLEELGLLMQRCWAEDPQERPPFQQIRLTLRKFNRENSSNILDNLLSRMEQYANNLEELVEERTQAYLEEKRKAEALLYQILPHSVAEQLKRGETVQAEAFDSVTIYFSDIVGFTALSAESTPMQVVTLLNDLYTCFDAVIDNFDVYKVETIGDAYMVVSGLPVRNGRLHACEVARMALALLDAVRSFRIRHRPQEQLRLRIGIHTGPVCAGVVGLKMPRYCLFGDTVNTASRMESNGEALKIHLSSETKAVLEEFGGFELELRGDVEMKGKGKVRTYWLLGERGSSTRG
Records with an inconclusive call do not appear. Active and inactive are the calls of the source. Calls come from the whole dose curve.
Attribute Measured: outcome

* CC(=O)OC[C@H]1O[C@@H](ON=C2C[C@@H](O)[C@@H](O)[C@@H]3[C@H]4C(=O)N(C5CCCCC5)C(=O)[C@@H]4CC[C@@H]23)[C@H](OC(C)=O)[C@@H](OC(C)=O)[C@H]1OC(C)=O | inactive
* O=c1n(-c2ccccc2)c(=O)n2n1CC[C@@H]1C(=NOC[C@@H](O)COCc3ccco3)[C@H]3O[C@H]3[C@@H](O)[C@H]12 | inactive
* C=CCN1c2ccccc2[C@]23CCC(=O)N(Cc4ccco4)C2=NC(C(=O)OC)=C(C(=O)OC)[C@H]13 | inactive
